// reported IC50 per item
# targetSystem: KRAS G12V (Homo sapiens, UniProt P01116+P62937, G12V)
# Sequence (P01116 1-169 isoform P01116-2 G12V limits assumed): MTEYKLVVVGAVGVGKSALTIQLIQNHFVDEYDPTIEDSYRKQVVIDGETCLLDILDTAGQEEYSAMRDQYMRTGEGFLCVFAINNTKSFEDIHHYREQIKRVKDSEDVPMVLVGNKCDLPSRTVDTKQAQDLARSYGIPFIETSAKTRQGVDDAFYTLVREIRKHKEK
# Sequence (P62937 whole entry): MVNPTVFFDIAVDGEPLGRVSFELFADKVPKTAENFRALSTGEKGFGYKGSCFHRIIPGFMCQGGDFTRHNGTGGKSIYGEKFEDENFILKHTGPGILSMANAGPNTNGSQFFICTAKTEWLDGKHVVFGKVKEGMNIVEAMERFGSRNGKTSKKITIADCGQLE
# experimentNotes: Ras-Raf disruption / FRET / MOA assay (BRAF RBD)
# Type: biochemical
# runConditions: KRAS G12V FRET data IC50, Ras-Raf disruption, with Cyclophilin A

Past entries and their recorded results:
- CCn1c(-c2cccnc2[C@H](C)OC)c2c3cc(ccc31)-c1cc(O)cc(c1)C[C@H](NC(=O)[C@H](C(C)C)N(C)C(=O)CN(C)C(=O)[C@]1(C)CN1)C(=O)N1CCC[C@H](N1)C(=O)OCC(C)(C)C2: 10 to 100 nM
- CCn1c(-c2cccnc2[C@H](C)OC)c2c3cc(ccc31)-c1cc(O)cc(c1)C[C@H](NC(=O)[C@H](C(C)C)N(C)C(=O)CN(C)C(=O)[C@H]1N[C@@H]1C1COC1)C(=O)N1CCC[C@H](N1)C(=O)OCC(C)(C)C2: 10 to 100 nM
- CCn1c(-c2cccnc2[C@H](C)OC)c2c3cc(ccc31)-c1cc(O)cc(c1)C[C@H](NC(=O)[C@H](C(C)C)N(C)C(=O)CN(C)C(=O)[C@@H]1CN1CCO)C(=O)N1CCC[C@H](N1)C(=O)OCC(C)(C)C2 (stereo partly drawn): 10 to 100 nM

Which IC50 is reported with KRAS G12V (Homo sapiens, UniProt P01116+P62937, G12V) for this entry: CCn1c(-c2cccnc2[C@H](C)OC)c2c3cc(ccc31)-c1cccc(c1)C[C@H](NC(=O)[C@H](C(C)C)N(C)C(=O)CN(C)C(=O)[C@H]1CN1)C(=O)N1CCC[C@H](N1)C(=O)OCC(C)(C)C2 ?
1000 to 10000 nM

Which IC50 is reported with KRAS G12V (Homo sapiens, UniProt P01116+P62937, G12V) for this entry: CCn1c(-c2cccnc2[C@H](C)OC)c2c3cc(ccc31)-c1cc(O)cc(c1)C[C@H](NC(=O)[C@H](C(C)C)N1CC[C@H](NC(=O)[C@H]3CN3)C1=O)C(=O)N1CCC[C@H](N1)C(=O)OCC(C)(C)C2 ?
100 to 1000 nM

Which IC50 is reported with KRAS G12V (Homo sapiens, UniProt P01116+P62937, G12V) for this entry: CCn1c(-c2cccnc2[C@H](C)OC)c2c3cc(ccc31)-c1cc(O)cc(c1)C[C@H](NC(=O)[C@H](C(C)C)N(C)C(=O)CN(C)C(=O)[C@@H]1N[C@@H]1C(C)C)C(=O)N1CCC[C@H](N1)C(=O)OCC(C)(C)C2 ?
10 to 100 nM

Which IC50 is reported with KRAS G12V (Homo sapiens, UniProt P01116+P62937, G12V) for this entry: CCn1c(-c2cccnc2[C@H](C)OC)c2c3cc(ccc31)-c1cc(O)cc(c1)C[C@H](NC(=O)[C@H](C(C)C)N(C)C(=O)CN(C)C(=O)[C@@]1(C)CN1)C(=O)N1CCC[C@H](N1)C(=O)OCC(C)(C)C2 ?
10 to 100 nM

Which IC50 is reported with KRAS G12V (Homo sapiens, UniProt P01116+P62937, G12V) for this entry: CCn1c(-c2cccnc2[C@H](C)OC)c2c3cc(ccc31)-c1cc(O)cc(c1)C[C@H](NC(=O)[C@H](C(C)C)N(C)C(=O)[C@H]1CC[C@@H](C)N1C(=O)[C@H]1CN1)C(=O)N1CCC[C@H](N1)C(=O)OCC(C)(C)C2 ?
100 to 1000 nM

Which IC50 is reported with KRAS G12V (Homo sapiens, UniProt P01116+P62937, G12V) for this entry: CCn1c(-c2cccnc2[C@H](C)OC)c2c3cc(ccc31)-c1cc(O)cc(c1)C[C@H](NC(=O)[C@H](C(C)C)N(C)C(=O)CN(C)C(=O)[C@H]1CN1CCCOC(C)=O)C(=O)N1CCC[C@H](N1)C(=O)OCC(C)(C)C2 (stereo partly drawn) ?
100 to 1000 nM
